Reference for the values: PubChem BioAssay (NCI)

Tested on: HOP-62 NSCLC
Assay comment: NCI tumour cell line growth inhibition, 48 h

Compound	TGI
O=[As](O)(O)c1ccc(NCc2ccccc2)cc1	> 100 µM
N#Cc1cccc(N2C(=O)c3c(c(-c4ccccc4)c(-c4ccc(Sc5ccc(-c6c(-c7ccccc7)c7c(c(-c8ccccc8)c6-c6ccccc6)C(=O)N(c6cccc(C#N)c6)C7=O)cc5)cc4)c(-c4ccccc4)c3-c3ccccc3)C2=O)c1	> 100 µM
CC1=C(C(=O)NCc2ccccc2)C(c2ccc(C3C(C(=O)NCc4ccccc4)=C(C)NC(C)=C3C(=O)NCc3ccccc3)cc2)C(C(=O)NCc2ccccc2)=C(C)N1	41.1 µM
Nc1nc(CCC(=O)Nc2cccc(C(F)(F)F)c2)cc(-c2cccc3ccccc23)n1	> 100 µM
O=C(O)c1ccccc1.[Ag]	46.3 µM
CC1CC2C3CC(F)C4=CC(=O)C=CC4(C)C3(F)C(O)CC2(C)C1(O)C(=O)COC(=O)C(C)(C)C (stereo not given)	> 100 µM
CC[P+](C)(Cc1ccccc1)c1ccccc1 (stereo not given)	> 100 µM
c1ccc(C2=NC3(CCCCC3)N(c3nc4ccccc4s3)N2)nc1	> 100 µM
CCOC(=O)c1cnc(-n2[nH]c(C)c(CCO)c2=O)[nH]c1=O	> 100 µM
Cc1c2cnccc2c(C)c2c1c1cc(C3OCCCO3)ccc1n2C	1.82 µM
O=C1c2c(F)c(F)c(F)c(F)c2SC2=NCCN12	32.6 µM
O=C1C2CCCCC2C(=O)N1n1c(Cc2ccc(Cl)cc2)n[nH]c1=O (stereo not given)	> 100 µM
CNC(=O)c1ccccc1-[s+]1c2ccccc2c(=O)n1C (stereo not given)	> 100 µM
C1=C\SS/C=C\SS/C=C\SS/C=C\SS/1	> 100 µM
COc1cccc2c1OC1c3ccccc3OCC1C2 (stereo not given)	> 100 µM
C(=Nc1ccccc1)C1CCCC[N-]1.C(=Nc1ccccc1)C1CCCC[N-]1.[Cu+2].[O-][Cl+3]([O-])([O-])O (stereo not given)	54.6 µM
COc1cc2c(cc1OCCCN1CCN(CCCOc3cc4c(cc3OC)C(=O)N3CCC[C@H]3C=N4)CC1)C=CC(C)(C)O2	2.5 µM
COc1c2cc([N+](=O)[O-])cc1CNC(=O)CN1CCOCCOCCN(CCOCCOCC1)CC(=O)NC2	> 100 µM
CCCNC1CC(n2cc(C)c(=O)[nH]c2=O)OC1CO (stereo not given)	> 100 µM
O=C1c2ccccc2C2(O)Nc3cc(O)ccc3C12O (stereo not given)	> 100 µM
COc1cccc([C@H]2CC(=O)c3cc4c(cc3N2)OCO4)c1	> 100 µM
O=C(/C=C/c1ccc(B(O)O)cc1)/C=C/c1ccc(B(O)O)cc1	22 µM
Cc1[nH]ncc1-c1cc2nc(C3CC4CCN3CC4)[nH]c(=O)c2s1 (stereo not given)	> 100 µM
C=CCNC(=S)Nc1sc2c(c1C(=O)OCC)CC(C)CC2 (stereo not given)	65.1 µM
CN(C)CCCOc1ccccc1NC1=C(Cl)C(=O)C(Nc2ccccc2OCCCN(C)C)=C(Cl)C1=O	3.31 µM
CCC[CH2][Sn]([CH2]CCC)([O]C(=O)c1c(F)cccc1F)[O]C(=O)c1c(F)cccc1F	3.69 µM
C=C(C)C(=O)CC[C@@H](C)[C@H]1[C@@H](OC2OC(CO)C(O)C(O)C2O)C[C@@]2(C)[C@@H]3C[C@H](O)C4C(C)(C)[C@@H](OC5OC(CO)C(O)C(O)C5O)CC[C@@]45C[C@@]35CC[C@]12C (stereo not given in full)	> 100 µM
COc1cc(/C=C/C(=O)OCC23CC[C@@]4(C(=O)O)CCC(C)[C@H](C)C4C2=CCC2[C@@]4(C)CC[C@H](O)C(C)(C)C4CC[C@]23C)ccc1O (stereo not given in full)	28.6 µM
CC(=O)N1CCN(C2=Nc3ccccc3CO2)C1=S	> 100 µM
Nc1ncnc2c1ncn2C1OC(COP(=O)(O)CP(=O)(O)O)C(O)C1O (stereo not given)	> 100 µM
c1ccc(SC2(Sc3ccccc3)CCCC2)cc1	> 100 µM
COC(=O)c1cn(CCCC(=O)O)nn1	> 100 µM
O=C(O)CSCc1cccc2ccccc12	> 100 µM
COc1ccc(Cn2c(C)nc3c2C(=O)c2ccccc2C3=O)cc1	51.7 µM
c1csc(-c2ccc(-c3ccc(-c4ccc(-c5cccs5)s4)s3)s2)c1	> 100 µM
Cc1c2cc(Cl)ccc2n2c(=O)c3ccccc3[nH]c(=O)c12	> 100 µM
C[n+]1c(/C=C\C=C\N2CCCCC2)sc2ccccc21	> 38.2 µM
CCC(C)CN1C(=O)NC(C)(Cc2ccccc2)C1=O (stereo not given)	> 100 µM
OCCOc1ccc(-c2cc(-c3ccccn3)nc(-c3ccccn3)c2)cc1	> 18.9 µM
N#Cc1cc(C#N)c(Cl)nc1N	> 10 µM
